- System: ATP;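 further: ATP exposure 15 min at 22 °C before imaging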
- assay-details: switch fluorescence ratio, 500 uM ATP over buffer (Cy3 cluster intensity, sum of 5 cycles each) (fold (ratio)); higher = stronger signal-on switching upon ATP binding; sequences stand for … in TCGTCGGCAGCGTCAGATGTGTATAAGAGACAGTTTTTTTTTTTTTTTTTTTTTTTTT…TC
- test-conditions: aptamer strand: ATP DNA aptamer (quencher-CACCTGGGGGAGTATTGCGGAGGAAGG + anchor), 100 nM annealed; ATP concentration: 500 uM
Reported switch fluorescence ratio by item:
test-readout: switch fluorescence ratio

[[record]]
primary_sequence = "GTCAGGCTGA"
test_readout = "switch fluorescence ratio"
observed = 0.974

[[record]]
primary_sequence = "TGTGTAAAGT"
test_readout = "switch fluorescence ratio"
observed = 1.82

[[record]]
primary_sequence = "GTTTGGGTTG"
test_readout = "switch fluorescence ratio"
observed = 0.989

[[record]]
primary_sequence = "TGGGTTTTAC"
test_readout = "switch fluorescence ratio"
observed = 1.01

[[record]]
primary_sequence = "GCTGAAGGGA"
test_readout = "switch fluorescence ratio"
observed = 0.99

[[record]]
primary_sequence = "AGTTAAATTT"
test_readout = "switch fluorescence ratio"
observed = 0.994

[[record]]
primary_sequence = "CATGGTATTA"
test_readout = "switch fluorescence ratio"
observed = 1.01

[[record]]
primary_sequence = "ACGCGGGGGG"
test_readout = "switch fluorescence ratio"
observed = 1.02

[[record]]
primary_sequence = "GACAGGGTCC"
test_readout = "switch fluorescence ratio"
observed = 1.04

[[record]]
primary_sequence = "TTCGGCCCCA"
test_readout = "switch fluorescence ratio"
observed = 0.99

[[record]]
primary_sequence = "AGATACGGTG"
test_readout = "switch fluorescence ratio"
observed = 0.983

[[record]]
primary_sequence = "TTTTTTCCTG"
test_readout = "switch fluorescence ratio"
observed = 0.989

[[record]]
primary_sequence = "TGAGAGCGTC"
test_readout = "switch fluorescence ratio"
observed = 0.89

[[record]]
primary_sequence = "TAACTACGAG"
test_readout = "switch fluorescence ratio"
observed = 1.07

